Molecular target: c-kit mutant D816V (Homo sapiens, UniProt P10721, D816V/DEL694-753)
Construct: residues 551-934, kinase insertion domain residues 694-753 deleted; 6x-histidine (N); made in house; host or cells: E. coli Arctic Express (DE3) RIL (Stratagene)
Sequence (P10721 with tags, fused parts or gaps DEL694-753/D816V): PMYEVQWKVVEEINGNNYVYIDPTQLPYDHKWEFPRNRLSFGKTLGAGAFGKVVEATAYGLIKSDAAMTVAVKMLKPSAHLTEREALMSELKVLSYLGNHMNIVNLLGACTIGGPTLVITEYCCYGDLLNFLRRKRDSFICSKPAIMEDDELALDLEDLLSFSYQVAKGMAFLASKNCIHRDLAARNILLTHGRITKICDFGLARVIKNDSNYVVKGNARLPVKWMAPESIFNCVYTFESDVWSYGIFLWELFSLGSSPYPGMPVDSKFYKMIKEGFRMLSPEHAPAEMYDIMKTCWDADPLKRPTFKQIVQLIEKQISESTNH
Assay: c-Kit mutant D816V biochemical assay, AlphaScreen
Settings: c-kit D816V biochemical inhibitory activity; read-out: Biochemical activity (IC50 μM) Kit D816V
So I've got a bunch of molecules here, and I need their IC50 values.

Note to self: IC50 of Cc1cc2c(-c3ccc(NS(=O)(=O)c4ccc(F)c(F)c4)cc3)ncnc2[nH]1 with c-kit mutant D816V (Homo sapiens, UniProt P10721, D816V/DEL694-753) was 1 to 10 µM

Note to self: IC50 of O=C(Nc1ccc(OC(F)(F)F)cc1)N1CCN(c2ncnc3[nH]c(-c4cccnc4)cc23)CC1 with c-kit mutant D816V (Homo sapiens, UniProt P10721, D816V/DEL694-753) was 0.0001 to 1 µM

Note to self: IC50 of Cc1nn(C)cc1-c1cc2c(N3CCC(NS(=O)(=O)c4ccc(Cl)cc4)CC3)ncnc2[nH]1 with c-kit mutant D816V (Homo sapiens, UniProt P10721, D816V/DEL694-753) was 0.0001 to 1 µM

Note to self: IC50 of C[C@H](NC(=O)N1CCN(c2ncnc3[nH]c(-c4ccc(C#N)cc4)cc23)CC1(C)C)c1cccc(Cl)c1 with c-kit mutant D816V (Homo sapiens, UniProt P10721, D816V/DEL694-753) was 0.0001 to 1 µM

Note to self: IC50 of Cc1cc2c(-c3ccc(NS(=O)(=O)c4cccc(Cl)c4F)cc3F)ncnc2[nH]1 with c-kit mutant D816V (Homo sapiens, UniProt P10721, D816V/DEL694-753) was 10 to 200 µM

Note to self: IC50 of Cc1cc2c(-c3ccc(NS(=O)(=O)c4ccc(C)s4)cc3F)ncnc2[nH]1 with c-kit mutant D816V (Homo sapiens, UniProt P10721, D816V/DEL694-753) was 0.0001 to 1 µM

Note to self: IC50 of COc1cccc([C@H](C)NC(=O)N2CC3CCC2CN3c2ncnc3cc(-c4ccc(F)cc4)sc23)c1 (stereo partly shown) with c-kit mutant D816V (Homo sapiens, UniProt P10721, D816V/DEL694-753) was 1 to 10 µM

Note to self: IC50 of Cc1ccc(S(=O)(=O)Nc2ccc(-c3ncnc4[nH]c(-c5ccc(F)cc5)cc34)cc2)cc1 with c-kit mutant D816V (Homo sapiens, UniProt P10721, D816V/DEL694-753) was 0.0001 to 1 µM

Note to self: IC50 of CC(C)(NC(=O)N1CCN(c2ncnc3cc(-c4ccc(F)cc4)sc23)CC1(C)C)c1ccccc1 with c-kit mutant D816V (Homo sapiens, UniProt P10721, D816V/DEL694-753) was 1 to 10 µM

Note to self: IC50 of Cc1cc2c(-c3ccc(NS(=O)(=O)c4ccc(OC(F)F)cc4)cc3F)ncnc2[nH]1 with c-kit mutant D816V (Homo sapiens, UniProt P10721, D816V/DEL694-753) was 1 to 10 µM

Note to self: IC50 of CC1(C)C=C(c2cc3c(N4CCC(NS(=O)(=O)c5ccc(OC(F)(F)F)cc5)CC4)ncnc3[nH]2)CC(C)(C)O1 with c-kit mutant D816V (Homo sapiens, UniProt P10721, D816V/DEL694-753) was 10 to 200 µM

Note to self: IC50 of C[C@H](NC(=O)N1CCN(c2ncnc3[nH]c(-c4ccncc4)cc23)C[C@@H]1C)c1ccc(Cl)cc1 with c-kit mutant D816V (Homo sapiens, UniProt P10721, D816V/DEL694-753) was 0.0001 to 1 µM

Note to self: IC50 of COc1cc(-c2cc3c(N4CCN(C(=O)N[C@@H](C)c5ccc(F)cc5)C(C)(C)C4)ncnc3[nH]2)ccn1 with c-kit mutant D816V (Homo sapiens, UniProt P10721, D816V/DEL694-753) was 0.0001 to 1 µM

Note to self: IC50 of O=C(NCCc1ccccc1)N1CCN(c2ncnc3[nH]c(-c4ccc(F)cc4)cc23)CC1 with c-kit mutant D816V (Homo sapiens, UniProt P10721, D816V/DEL694-753) was 10 to 200 µM

Note to self: IC50 of O=C(Nc1cccc(C(F)(F)F)c1)NC1CCN(c2ncnc3[nH]ccc23)CC1 with c-kit mutant D816V (Homo sapiens, UniProt P10721, D816V/DEL694-753) was 10 to 200 µM

Note to self: IC50 of Cc1ccc(NS(=O)(=O)c2ccc(-c3ncnc4[nH]c(-c5ccc(F)cc5)cc34)cc2)cc1 with c-kit mutant D816V (Homo sapiens, UniProt P10721, D816V/DEL694-753) was 1 to 10 µM

====

Biological target: c-kit kinase (Homo sapiens, UniProt P10721)
Construct: The c-kit (or kinase domain thereof) is an active kinase in AlphaScreen; poly-Histidine tag (in-house protein only) (cleaved yes); host or cells: E. coli BL21(DE3)RIL, co-expressed with PTP1B
Sequence (P10721 26-976): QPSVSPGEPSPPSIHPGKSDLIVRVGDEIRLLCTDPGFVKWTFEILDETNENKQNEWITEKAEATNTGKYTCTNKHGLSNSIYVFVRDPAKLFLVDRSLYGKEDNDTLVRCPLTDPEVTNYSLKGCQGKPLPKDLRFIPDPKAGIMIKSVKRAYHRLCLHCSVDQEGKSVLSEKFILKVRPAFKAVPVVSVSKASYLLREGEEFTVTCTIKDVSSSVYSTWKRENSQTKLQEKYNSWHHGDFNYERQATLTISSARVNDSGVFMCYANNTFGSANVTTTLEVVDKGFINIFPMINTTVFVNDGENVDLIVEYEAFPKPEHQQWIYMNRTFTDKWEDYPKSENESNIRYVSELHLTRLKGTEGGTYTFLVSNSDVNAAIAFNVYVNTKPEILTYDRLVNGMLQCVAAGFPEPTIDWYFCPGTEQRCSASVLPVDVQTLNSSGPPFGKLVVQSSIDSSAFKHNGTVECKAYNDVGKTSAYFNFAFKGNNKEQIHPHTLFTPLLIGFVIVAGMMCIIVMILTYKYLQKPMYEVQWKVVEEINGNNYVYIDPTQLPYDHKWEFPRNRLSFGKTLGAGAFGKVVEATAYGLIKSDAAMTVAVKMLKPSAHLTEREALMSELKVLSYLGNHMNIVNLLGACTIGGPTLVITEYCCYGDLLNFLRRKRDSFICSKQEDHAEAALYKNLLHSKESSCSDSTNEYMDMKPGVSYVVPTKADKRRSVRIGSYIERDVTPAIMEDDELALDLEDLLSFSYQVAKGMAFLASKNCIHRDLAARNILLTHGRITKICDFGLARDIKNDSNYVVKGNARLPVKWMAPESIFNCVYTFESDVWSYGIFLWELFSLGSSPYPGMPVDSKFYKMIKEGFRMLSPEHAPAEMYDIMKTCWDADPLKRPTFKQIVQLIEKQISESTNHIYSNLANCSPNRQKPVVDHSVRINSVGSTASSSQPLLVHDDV
Test: c-Kit biochemical assay, AlphaScreen, 10 μM ATP
Conditions: c-kit biochemical inhibitory activity; read-out: Biochemical activity (IC50 μM) Kit
So I've got a bunch of molecules here, and I need their IC50 values.

Input C[C@H](NC(=O)N1CCN(c2ncnc3[nH]c(-c4ccc(C#N)cc4)cc23)CC1(C)C)c1cccc(Cl)c1 [P-0689] . Output IC50: 0.0001 to 1 µM

Input O=S(=O)(Nc1ccc(-c2ncnc3[nH]c(C(F)F)cc23)c(F)c1)c1ccc(Cl)cc1 [P-0310] . Output IC50: 1 to 10 µM

Input CS(=O)(=O)NC1CCN(c2ncnc3[nH]c(C#CC4CC4)cc23)CC1 [P-0472] . Output IC50: 10 to 200 µM

Input CC(C)(C)OC(=O)N1CCN(c2ncnc3[nH]c(-c4cccnc4)cc23)CC1 [P-0232] . Output IC50: 10 to 200 µM

Input COc1cccc([C@H](C)NC(=O)N2CCN(c3ncnc4cc(N5CCOCC5)sc34)CC2)c1 [P-0548] . Output IC50: 1 to 10 µM

Input O=C(Nc1ccc(OC(F)(F)F)cc1)N1CCN(c2ncnc3[nH]c(-c4cccnc4)cc23)CC1 [P-0224] . Output IC50: 0.0001 to 1 µM

Input CCc1ccc(C(=O)N2CCN(c3ncnc4[nH]ccc34)CC2)cc1 [P-0197] . Output IC50: 1 to 10 µM

Input COc1cccc([C@H](C)NC(=O)N2CCN(c3ncnc4cc(C5=CC(C)(C)NC(C)(C)C5)sc34)CC2)c1 [P-0574] . Output IC50: 1 to 10 µM

Input Cn1cc(-c2cc3c(N4CCC(NS(=O)(=O)c5ccc6c(c5)CCO6)CC4)ncnc3[nH]2)cn1 [P-0457] . Output IC50: 10 to 200 µM

Input Cc1nn(C)cc1-c1cc2c(N3CCC(NS(=O)(=O)c4ccc(OC(F)(F)F)cc4)CC3)ncnc2[nH]1 [P-0668] . Output IC50: 0.0001 to 1 µM

Input Cc1ccc(S(=O)(=O)NC2CCN(c3ncnc4[nH]c(-c5cnn(C)c5)cc34)CC2)cc1 [P-0451] . Output IC50: 1 to 10 µM

Input O=S(=O)(Nc1ccc(-c2ncnc3[nH]c(-c4cc(F)ccc4F)cc23)c(F)c1)c1ccc(Cl)cc1 [P-0337] . Output IC50: 10 to 200 µM

Input COCCOc1cc2ncnc(-c3ccc(NS(=O)(=O)C4CC4)cc3F)c2cc1OCCOC [P-0263] . Output IC50: 10 to 200 µM

Input CCCCS(=O)(=O)Nc1ccc(-c2ncnc3[nH]c(-c4ccc(F)cc4)cc23)cc1 [P-0419] . Output IC50: 10 to 200 µM

Input COc1ccc(S(=O)(=O)Nc2ccc(-c3ncnc4[nH]nc(C)c34)cc2)cc1 [P-0444] . Output IC50: 1 to 10 µM

Input NC1CCN(c2ncnc3[nH]ccc23)CC1 [P-0541] . Output IC50: 10 to 200 µM

Input O=C(Nc1ccc(OC(F)(F)F)cc1)N1CCN(c2ncnc3[nH]c(C#CC4CC4)cc23)CC1 [P-0053] . Output IC50: 1 to 10 µM

Input O=S(=O)(NC1CCN(c2ncnc3[nH]ccc23)CC1)c1cc(F)ccc1F [P-0539] . Output IC50: 10 to 200 µM

Input CS(=O)(=O)Nc1ccc(-c2ncnc3[nH]c(-c4ccc(F)cc4F)cc23)c(F)c1 [P-0333] . Output IC50: 0.0001 to 1 µM

Input COc1ccc(S(=O)(=O)Nc2ccc(-c3ncnc4[nH]c(-c5ccc(F)cc5)cc34)c(F)c2)cc1 [P-0402] . Output IC50: 1 to 10 µM

Input CCCNC(=O)N1CCN(c2ncnc3[nH]c(-c4cccnc4)cc23)CC1 [P-0218] . Output IC50: 10 to 200 µM

Input O=C(NCc1ccc(F)cc1)N1CCN(c2ncnc3[nH]c(CC4CC4)cc23)CC1 [P-0210] . Output IC50: 10 to 200 µM

Input C[C@H](NC(=O)N1CCN(c2ncnc3cc(-c4ccc(F)cc4)sc23)C[C@H]1C)c1cccc(OC(F)F)c1 [P-0586] . Output IC50: 1 to 10 µM

Input O=S(=O)(Nc1ccc(-c2ncnc3[nH]c(-c4ccc(F)cc4)cc23)c(F)c1)c1ccc(Cl)cc1 [P-0396] . Output IC50: 10 to 200 µM

Input O=C(NCc1ccc(F)cc1)N1CCN(c2ncnc3[nH]c(-c4cccnc4)cc23)CC1 [P-0222] . Output IC50: 1 to 10 µM

Input C[C@H](NC(=O)N1CCN(c2ncnc3[nH]c(-c4ccc(C#N)cc4)cc23)CC1(C)C)c1cccc(F)c1 [P-0688] . Output IC50: 1 to 10 µM

Input COc1cc(NC(=O)N2CCN(c3ncnc4[nH]c(-c5cccnc5)cc34)CC2)cc(OC)c1 [P-0229] . Output IC50: 1 to 10 µM

Input N#Cc1ccc(-c2cc3c(N4CCN(C(=O)NCc5ccc(F)cc5)CC4)ncnc3[nH]2)cc1 [P-0109] . Output IC50: 10 to 200 µM

Input COCCOc1cc2ncnc(-c3ccc(NS(=O)(=O)c4cccc(F)c4)cc3F)c2cc1OCCOC [P-0260] . Output IC50: 1 to 10 µM

Input C[C@H](NC(=O)N1CCN(c2ncnc3[nH]c(-c4ccc(F)cc4)cc23)C[C@H]1C)c1ccc(Cl)cc1 [P-0029] . Output IC50: 10 to 200 µM

Input COc1cccc([C@H](C)NC(=O)N2CCN(c3ncnc4cc(N5CCC(F)(F)CC5)sc34)CC2(C)C)c1 [P-0680] . Output IC50: 1 to 10 µM

Input C[C@H]1CN(c2ncnc3[nH]c(-c4ccncc4)cc23)CCN1C(=O)NCc1ccc(Cl)cc1 [P-0044] . Output IC50: 0.0001 to 1 µM

Input COc1cc(NC(=O)N2CCN(c3ncnc4[nH]cc(-c5ccccc5)c34)CC2)cc(OC)c1 [P-0216] . Output IC50: 10 to 200 µM
